- method notes: Drug excretion in bile duct-cannulated rat urine after 8 hrs by chromatographic analysis
- Assay type: ADME
- test conditions: read-out: Drug excretion
property name: dose excreted at 8 h

**Query** Find the measured dose excreted at 8 h of [3H]c1nc(Nc2cccnc2)nc2c1C(C)(C)C(=O)N2[C@H](C)CC and report it.
**Result** > 95%

----------
Measured logD values are reported for all entries that follow.
- method notes: Partition coefficient, logD of compound at pH 7 by HPLC analysis
- Type: physicochemical
- test conditions: octanol/water
// return a plain number; no unit text

// worked examples, logD included
>>> endpoint_value("CC(=O)N1CCC(N2C(=O)C(C)(C)c3cnc(Nc4ccc(F)cc4)nc32)CC1")
2.5
>>> endpoint_value("CC(=O)N1CCC(N2C(=O)C(C)(C)c3cnc(Nc4cccnc4)nc32)CC1")
1.18

**Query** Find the measured logD of CC[C@H](C)N1C(=O)C(C)(C)c2cnc(Nc3ccc(CN4CCC(=O)N(C)CC4)cc3)nc21 and report it.
**Result** 2.68

**Query** Find the measured logD of CC[C@H](C)N1C(=O)C(C)(C)c2cnc(Nc3ccc(CN4CCN(C)CC4)cc3)nc21 and report it.
**Result** 2.54

**Query** Find the measured logD of CC1(C)C(=O)N(C2CCCCC2)c2nc(Nc3cccnc3)ncc21 and report it.
**Result** 2.82

**Query** Find the measured logD of C[C@@H](c1ccc(F)cc1)N1C(=O)C(C)(C)c2cnc(Nc3cccnc3)nc21 and report it.
**Result** 2.81

**Query** Find the measured logD of CC(=O)N1CCC(N2C(=O)C(C)(C)c3cnc(Nc4ccccc4)nc32)CC1 and report it.
**Result** 1.6

**Query** Find the measured logD of CC[C@H](C)N1C(=O)C(C)(C)c2cnc(Nc3ccc(CNC4CCCOC4)cc3)nc21 (stereo partly drawn) and report it.
**Result** 2.79

**Query** Find the measured logD of CC[C@H](C)N1C(=O)C(C)(C)c2cnc(Nc3cccnc3)nc21 and report it.
**Result** 2.56
